tested on: HCT 116 human epithelial colon carcinoma cells; test: cells; assay type: cell-based; conditions: Table 11; 48-h continuous exposure; mean of three independent experiments; read-out: Drug concentration that inhibits 50% of cell viability (IC50), HCT 116
pIC50: −log10 of the molar value.

# molecule, system-under-test, pIC50
rows = [
    ("CCc1c2c(nc3ccc(O)cc13)-c1cc3c(c(=O)n1C2)COC(=O)[C@]3(O)CC [SN38, 7-ethyl-10-hydroxy-camptothecin, reference compound]", "HCT 116 human epithelial colon carcinoma cells", 8.15),
]

* * *

assay: physchem; conditions: water

# compound, solubility
data = [
    ("CCc1c2c(nc3ccc(OC(=O)N4CCC(N5CCCCC5)CC4)cc13)-c1cc3c(c(=O)n1C2)COC(=O)[C@]3(O)CC [irinotecan, reference compound]", "≤ 2500 µg/mL"),
]
